biological target: T1, Human CD137 ECD (human); assay: Biacore SPR, vs parent H183/L072
T1 construct: entry includes C-terminal His-tag and biotin acceptor peptide; also called human CD137 extracellular domain; 4-1BB
T1 sequence (chain, as listed by the source limits assumed): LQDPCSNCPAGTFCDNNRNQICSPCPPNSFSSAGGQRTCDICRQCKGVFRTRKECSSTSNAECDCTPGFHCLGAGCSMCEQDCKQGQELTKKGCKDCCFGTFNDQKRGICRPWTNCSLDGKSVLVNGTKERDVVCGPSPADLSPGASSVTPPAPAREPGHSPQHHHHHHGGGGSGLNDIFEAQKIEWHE
quantity_kind: fold change of affinity (fold)
Field format: number, assumed fold, no unit text.

Please review the entries below; each comes with its answer.
- H183/L072 VL Q27L (antibody, name in Kabat numbering, V domains shown, Dual-Ig) VH: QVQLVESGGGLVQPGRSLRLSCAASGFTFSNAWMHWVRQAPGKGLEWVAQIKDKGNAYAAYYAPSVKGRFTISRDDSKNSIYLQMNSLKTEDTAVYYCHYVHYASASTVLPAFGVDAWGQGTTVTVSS VL: DIVMTQSPLSLPVTPGEPASISCQASLELVHMNRNTYLHWYQQKPGQAPRLLIYKVSNRFPGVPDRFSGSGSGTDFTLKISRVEAEDVGVYYCAQGTSVPFTFGQGTKLEIK: 0.8
- H183/L072 VL Q24Y (antibody, name in Kabat numbering, V domains shown, Dual-Ig) VH: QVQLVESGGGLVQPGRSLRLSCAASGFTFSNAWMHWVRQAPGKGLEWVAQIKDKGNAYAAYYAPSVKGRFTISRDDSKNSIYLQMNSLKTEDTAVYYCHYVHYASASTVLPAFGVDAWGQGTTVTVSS VL: DIVMTQSPLSLPVTPGEPASISCYASQELVHMNRNTYLHWYQQKPGQAPRLLIYKVSNRFPGVPDRFSGSGSGTDFTLKISRVEAEDVGVYYCAQGTSVPFTFGQGTKLEIK: 0.9
- H183/L072 VL F96G (antibody, name in Kabat numbering, V domains shown, Dual-Ig) VH: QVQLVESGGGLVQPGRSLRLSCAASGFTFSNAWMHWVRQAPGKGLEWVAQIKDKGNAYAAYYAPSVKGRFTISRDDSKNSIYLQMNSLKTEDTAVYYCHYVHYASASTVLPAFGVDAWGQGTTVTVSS VL: DIVMTQSPLSLPVTPGEPASISCQASQELVHMNRNTYLHWYQQKPGQAPRLLIYKVSNRFPGVPDRFSGSGSGTDFTLKISRVEAEDVGVYYCAQGTSVPGTFGQGTKLEIK: 0
- H183/L072 VL K50M (antibody, name in Kabat numbering, V domains shown, Dual-Ig) VH: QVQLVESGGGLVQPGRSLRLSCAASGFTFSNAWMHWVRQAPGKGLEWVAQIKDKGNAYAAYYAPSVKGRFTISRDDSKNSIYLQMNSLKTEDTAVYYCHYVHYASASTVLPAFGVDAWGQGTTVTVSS VL: DIVMTQSPLSLPVTPGEPASISCQASQELVHMNRNTYLHWYQQKPGQAPRLLIYMVSNRFPGVPDRFSGSGSGTDFTLKISRVEAEDVGVYYCAQGTSVPFTFGQGTKLEIK: 2.9
- H183/L072 VL L27bD (antibody, name in Kabat numbering, V domains shown, Dual-Ig) VH: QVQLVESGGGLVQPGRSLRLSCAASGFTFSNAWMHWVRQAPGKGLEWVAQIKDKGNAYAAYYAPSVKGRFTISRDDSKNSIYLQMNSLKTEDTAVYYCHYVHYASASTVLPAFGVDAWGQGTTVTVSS VL: DIVMTQSPLSLPVTPGEPASISCQASQEDVHMNRNTYLHWYQQKPGQAPRLLIYKVSNRFPGVPDRFSGSGSGTDFTLKISRVEAEDVGVYYCAQGTSVPFTFGQGTKLEIK: 0.2
- H183/L072 VL E27aG (antibody, name in Kabat numbering, V domains shown, Dual-Ig) VH: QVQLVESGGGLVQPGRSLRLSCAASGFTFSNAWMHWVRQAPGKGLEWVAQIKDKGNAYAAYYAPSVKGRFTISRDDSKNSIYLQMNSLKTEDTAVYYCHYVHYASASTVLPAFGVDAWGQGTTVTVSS VL: DIVMTQSPLSLPVTPGEPASISCQASQGLVHMNRNTYLHWYQQKPGQAPRLLIYKVSNRFPGVPDRFSGSGSGTDFTLKISRVEAEDVGVYYCAQGTSVPFTFGQGTKLEIK: 1
- H183/L072 VL R54W (antibody, name in Kabat numbering, V domains shown, Dual-Ig) VH: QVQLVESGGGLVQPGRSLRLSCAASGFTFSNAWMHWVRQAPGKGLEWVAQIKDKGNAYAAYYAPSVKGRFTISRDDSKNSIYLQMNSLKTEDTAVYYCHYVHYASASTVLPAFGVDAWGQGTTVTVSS VL: DIVMTQSPLSLPVTPGEPASISCQASQELVHMNRNTYLHWYQQKPGQAPRLLIYKVSNWFPGVPDRFSGSGSGTDFTLKISRVEAEDVGVYYCAQGTSVPFTFGQGTKLEIK: 0.4
- H183/L072 VL Q24M (antibody, name in Kabat numbering, V domains shown, Dual-Ig) VH: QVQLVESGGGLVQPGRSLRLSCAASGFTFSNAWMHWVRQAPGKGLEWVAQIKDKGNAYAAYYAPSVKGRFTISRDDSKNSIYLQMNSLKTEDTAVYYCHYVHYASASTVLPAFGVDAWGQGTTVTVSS VL: DIVMTQSPLSLPVTPGEPASISCMASQELVHMNRNTYLHWYQQKPGQAPRLLIYKVSNRFPGVPDRFSGSGSGTDFTLKISRVEAEDVGVYYCAQGTSVPFTFGQGTKLEIK: 1

Request: Please look at this binder and report its fold change of affinity: H183/L072 VL R29P (antibody, name in Kabat numbering, V domains shown, Dual-Ig) VH: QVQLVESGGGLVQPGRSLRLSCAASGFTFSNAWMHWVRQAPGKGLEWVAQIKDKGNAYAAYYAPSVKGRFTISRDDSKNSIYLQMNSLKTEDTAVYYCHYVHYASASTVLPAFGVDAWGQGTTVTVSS VL: DIVMTQSPLSLPVTPGEPASISCQASQELVHMNPNTYLHWYQQKPGQAPRLLIYKVSNRFPGVPDRFSGSGSGTDFTLKISRVEAEDVGVYYCAQGTSVPFTFGQGTKLEIK
Response: 0.2

Request: Read off the recorded fold change of affinity for H183/L072 VL G91S (antibody, name in Kabat numbering, V domains shown, Dual-Ig) VH: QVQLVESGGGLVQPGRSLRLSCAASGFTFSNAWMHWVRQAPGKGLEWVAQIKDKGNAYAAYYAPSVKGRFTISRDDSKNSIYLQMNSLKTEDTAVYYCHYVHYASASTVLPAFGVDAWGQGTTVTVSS VL: DIVMTQSPLSLPVTPGEPASISCQASQELVHMNRNTYLHWYQQKPGQAPRLLIYKVSNRFPGVPDRFSGSGSGTDFTLKISRVEAEDVGVYYCAQSTSVPFTFGQGTKLEIK
Response: 0

Reference for the values: patent US20210388087A1
